System: TRPC4 beta (transient receptor potential cation channel C4), mouse
Protocol Description: positive allosteric modulators of mouse TRPC4, confirmation, cell-based, Fluo-4, HEK293 TRPC4beta/mu-opioid (AID 2555)
Details: DAMGO EC20, Fluo-4 calcium flux, at 10 µM
Activity calls are given as the source filed them.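 Rule for the calls: active = primary screen hit whose calcium fluorescence ratio, in both repeats, exceeds the weak agonist control mean by 3 SD; inactive = the rest.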
Entry note: the call must match one of active, inactive

* CC(C)CNc1c2c(nc3ccccc13)CCC2 | inactive
* CNCCc1nc(N)n[nH]1 | inactive
* Cc1ccc(CN2C3CCCC2CC(NC(=S)NCc2ccccc2)C3)cc1 (stereo not drawn) | inactive

Query string: What outcome does the record of this test show for COC(=O)C1=C(c2cc3ccccc3s2)C[C@@H]2CC[C@H]1N2C(=O)NCCO ?
Result string: inactive

Query string: Look up the recorded call for Cn1c(N2CCNCC2)nc2ccccc21 in this test.
Result string: inactive

###

Target Of Assay: Short transient receptor potential channel 4 (Mus musculus) (UniProt Q9QUQ5)
Sequence (Q9QUQ5 whole entry, looked up): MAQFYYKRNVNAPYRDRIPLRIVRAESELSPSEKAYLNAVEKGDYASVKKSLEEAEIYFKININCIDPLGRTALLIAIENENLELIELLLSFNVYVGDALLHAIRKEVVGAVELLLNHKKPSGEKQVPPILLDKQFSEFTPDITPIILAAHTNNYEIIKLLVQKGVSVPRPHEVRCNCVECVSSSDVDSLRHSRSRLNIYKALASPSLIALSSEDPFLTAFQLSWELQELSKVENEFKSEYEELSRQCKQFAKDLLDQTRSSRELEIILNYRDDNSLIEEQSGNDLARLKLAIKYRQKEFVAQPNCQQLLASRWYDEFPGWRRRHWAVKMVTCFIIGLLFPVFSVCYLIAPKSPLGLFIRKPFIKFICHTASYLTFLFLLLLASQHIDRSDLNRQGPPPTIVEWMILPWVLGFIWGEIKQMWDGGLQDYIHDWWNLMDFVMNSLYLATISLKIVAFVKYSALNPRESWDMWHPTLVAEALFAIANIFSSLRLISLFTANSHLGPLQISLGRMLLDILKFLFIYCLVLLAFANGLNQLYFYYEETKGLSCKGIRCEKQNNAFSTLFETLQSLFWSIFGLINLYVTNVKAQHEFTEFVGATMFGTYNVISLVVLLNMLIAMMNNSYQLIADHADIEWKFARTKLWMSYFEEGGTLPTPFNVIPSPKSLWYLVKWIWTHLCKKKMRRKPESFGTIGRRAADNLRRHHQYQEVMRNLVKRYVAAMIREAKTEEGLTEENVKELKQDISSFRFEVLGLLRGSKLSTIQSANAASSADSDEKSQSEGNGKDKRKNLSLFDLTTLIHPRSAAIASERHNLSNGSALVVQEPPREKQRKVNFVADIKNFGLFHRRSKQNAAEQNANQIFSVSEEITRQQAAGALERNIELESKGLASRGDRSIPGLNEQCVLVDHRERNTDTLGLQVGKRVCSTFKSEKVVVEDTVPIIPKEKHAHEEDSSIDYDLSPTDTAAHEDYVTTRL
Protocol Description: inhibitors of mouse TRPC4 channel, confirmation, cell-based, second round, Fluo4, HEK293 TRPC4beta/mu-opioid, 1 µM (AID 2637)
Details: Fluo4 calcium flux, DAMGO, at 1 µM
Active and inactive are the calls of the source.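 The calls were made as follows: active = calcium signal ratio cut to more than 3 SD under the fully stimulated control mean yet still positive, in both repeats and the primary screen; inactive = the rest.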
Pick one: active, inactive

* CC1(C)CC(CCNCc2ccc3c(c2)OCO3)(Cc2ccccc2)CCO1 (centres undefined) | inactive
* COc1ccc2c(c1O)[C@]13CCN(C)[C@H](C2)[C@@H]1CCC(=O)C3 | inactive
* FC(F)(F)c1ccc(CN2CCNCC2)cc1 | inactive
* CCC(=O)OC1(c2cccc(C)c2)CC(C)N(C)CC1C (centres undefined) | inactive
* CC(=O)OC1(c2ccccc2)CCN(C2CCCCC2)CC1C (centres undefined) | inactive
* CCC1=Nc2cc(C(=O)N3CCC4(CC3)OCCO4)ccc2Sc2ccc(Br)cc21 | inactive
* CN(C)C1(CNC(=O)Nc2ccc(Cl)c(Cl)c2)CCCCC1 | inactive
* CCn1ccnc1CN1CCCC(C(=O)c2cccc(C(F)(F)F)c2)C1 (centres undefined) | inactive

Query string: Short answer needed: outcome of this test for CN(C)C(CNC(=O)Cc1ccc(Br)cc1)c1ccccc1 (centres undefined) ?
Result string: inactive

Query string: # fetch the recorded call for CCC1=Nc2cc(C(=O)N3CCC4(CC3)OCCO4)ccc2Sc2ccc(C)cc21 here
Result string: inactive

Query string: Check the results log: what was the call for COc1ccc(C(CNC(=O)c2ccc3c(c2)CCC3)N(C)C)cc1 (centres undefined) ?
Result string: inactive

Query string: For CC(Cc1ccccc1Sc1ccccc1)N(C)C (centres undefined) , what call appears in the results of this test?
Result string: inactive

Query string: Please let me know the test result on file for CCNc1cc(N2CCNCC2)ccc1[N+](=O)[O-] .
Result string: inactive

Query string: Tell me the recorded outcome of this test for CCOC(=O)C(O)(c1ccc(NC(=S)NC(=O)c2ccc(Cl)cc2Cl)c(C)c1)C(F)(F)F (centres undefined) .
Result string: inactive

###

Target Of Assay: Short transient receptor potential channel 4 (Mus musculus) (UniProt Q9QUQ5)
Protocol Description: inhibitors of mouse TRPC4 channel, confirmation, cell-based, second round, Fluo4, HEK293 TRPC4beta/mu-opioid, 1 µM (AID 2637);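 for inhibition: percent of integrated ratio relative to wells lacking test compound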
Details: Fluo4 calcium flux, DAMGO, at 1 µM; hits give high values
Calls of active or inactive are those of the source.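 How the source made its calls: active means calcium signal ratio cut to more than 3 SD under the fully stimulated control mean yet still positive, in both repeats and the primary screen; inactive means the rest.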
Result Type: inhibition

* COc1ccc(C(=O)C2CN(C)CC2c2ccc(Cl)cc2)cc1 (stereo not drawn) | inactive
* CCc1n[nH]c(CCN)n1 | inactive
* CC(N)Cc1c[nH]c2cc3c(cc12)OCCO3 (stereo not drawn) | inactive
* COc1cccc(O)c1CN1CCCC(C(=O)c2sccc2C)C1 (stereo not drawn) | 40% (active)
* CCOC(=O)C1(CCc2ccccc2)CCN(Cc2ccc(NC(C)=O)cc2)CC1 | inactive

Query string: So what does the record say about inhibition for COc1ccc(C2NCCc3[nH]cnc32)cc1 (stereo not drawn) ?
Result string: inactive

Query string: Need inhibition of O=C(CCCc1ccccc1)NCCc1cnc[nH]1 , thanks.
Result string: inactive

Query string: Query (molecule): COc1ccc2c(c1O)C13CCN(C)C(C2)C1CCC(=O)C3 (stereo not drawn) ; field requested: inhibition
Result string: inactive

###

System: transient receptor potential cation channel C4 beta (TRPC4), mouse
Protocol Description: activators of mouse TRPC4 channel, confirmation, cell-based, second round, Fluo4, HEK293 TRPC4beta/mu-opioid, 1 µM (AID 2461)
Details: Fluo4 calcium fluorescence, at 1 µM
The source made the active and inactive calls.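 Rule for the calls: active = primary screen active and over 50% activation in each of two duplicate runs; inactive = the rest.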
// one of active, inactive, no free text

* CC(C)CN(CC(C)C)c1ccc(C=C2C(=O)NC(=S)NC2=O)cc1[N+](=O)[O-] | inactive
* Nc1c([N+](=O)[O-])cc(F)c(N2CCNCC2)c1Br | inactive
* COc1ccc(C2NCCc3[nH]cnc32)cc1 (configuration not stated) | active
* COc1ccccc1CC(=O)N1CCN(CCc2ccccc2)CC1 | inactive

Query string: Please share the test call associated with O=C1OC(c2ccc([N+](=O)[O-])cc2)=N/C1=C/N1CC2CC(C1)c1cccc(=O)n1C2 (configuration not stated) .
Result string: inactive

Query string: Lab log entry: CCN1CCN(Cc2cc(Br)ccc2O)CC1 — outcome as called in the assay?
Result string: inactive

Query string: Please share the test call associated with CCCCN1C(=O)NC(=O)C2(Cc3c(nc4c(C)cccn4c3=O)N3CCc4ccccc4C32)C1=O (configuration not stated) .
Result string: inactive

Query string: Please indicate how the test categorized Clc1ccc2c(c1)C(c1ccccc1Cl)=NCc1nnc(N3CCN(CCOc4ccccc4)CC3)n1-2 .
Result string: inactive

Query string: // param item: Nc1cc(N2CCNCC2)ccc1[N+](=O)[O-] ; yields the recorded call
Result string: active

Query string: What was the test verdict on c1ccc2sc(C3CCCNC3)nc2c1 (configuration not stated) ?
Result string: active

Query string: Could you kindly confirm the outcome this assay logged for O=C(CCCN1CCC2(CC1)C(=O)NCN2c1ccccc1)c1ccc(F)cc1 ?
Result string: inactive

Query string: Returns: the outcome recorded for COc1ccc(C(=O)C2CN(C)CC2c2ccc(Cl)cc2)cc1 (configuration not stated) in this assay.
Result string: inactive

Query string: So what was the verdict on Cc1ccccc1CN1CCNCC1 in this test?
Result string: inactive

Query string: What outcome does the record of this test show for COc1ccc(CNCCc2c[nH]c3ccccc23)cc1OC ?
Result string: inactive

Query string: Check the results log: what was the call for COc1ccc(CCNCc2ccc(SC)cc2)cc1 ?
Result string: inactive

Query string: Hello, I am checking results. What call was entered for Nc1ccccc1-[n+]1c(-c2ccccc2)cc(-c2ccccc2)cc1-c1ccccc1 ?
Result string: inactive

Query string: Per the records of this test, what outcome belongs to Cc1c(P(=S)(c2ccccc2)c2ccccc2)[n+]2ccccc2n1C ?
Result string: inactive

Query string: I'd appreciate the recorded outcome for COc1ccc(C(CNC(=O)c2ccc3c(c2)CCC3)N(C)C)cc1 (configuration not stated) from this test.
Result string: active

Query string: Look up the recorded call for CN1CCN(c2cccc3c2C(=O)c2ccccc2C3=O)CC1 in this test.
Result string: inactive

Query string: What is the recorded call for this molecule in the test? Cn1cc[n+](C)c1P(=S)(c1ccccc1)c1ccccc1
Result string: inactive

Query string: Look up the recorded call for Clc1ccc2sc(C3CCNCC3)nc2c1 in this test.
Result string: active

Query string: Any idea what this test logged for CN1CCN(c2ccc([N+](=O)[O-])c3cccnc23)CC1 ?
Result string: active

Query string: What did this assay record as the result for COc1ccc(OC)c(N2Cc3ccccc3C2=N)c1 ?
Result string: inactive

Query string: Recorded test outcome, item CCNc1cc(N2CCNCC2)ccc1[N+](=O)[O-]
Result string: inactive

Query string: Just curious, what result did CCN1CC2C3CCC(C)(O3)C2C1 (configuration not stated) get here?
Result string: inactive

###

System: TRPC4 beta (transient receptor potential cation channel C4), mouse
Protocol Description: activators of mouse TRPC4 channel, confirmation, cell-based, Fluo4 calcium, HEK293 TRPC4beta/mu-opioid, duplicates, 10 µM (AID 2426)
Details: Fluo4 calcium fluorescence, at 10 µM
Active and inactive are the calls of the source.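 How the source made its calls: active means fluorescence ratio normalized to control raised more than 50% in primary screen plus both repeat runs; inactive means the rest.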
Your answer must be one of the following: 1 (yes) (active), 0 (no) (inactive)

• CC(Cc1ccccc1Sc1ccccc1)N(C)C (configuration not stated) = 0 (no)
• CCC1=Nc2cc(C(=O)N3CCC4(CC3)OCCO4)ccc2Sc2ccc(C)cc21 = 0 (no)
• Nc1c([N+](=O)[O-])cc(F)c(N2CCNCC2)c1Br = 0 (no)
• O=C(CCCN1CCC2(CC1)C(=O)NCN2c1ccccc1)c1ccc(F)cc1 = 1 (yes)
• COc1ccc(OC)c(N2Cc3ccccc3C2=N)c1 = 0 (no)
• COc1cc(C)c(CNCCc2c[nH]c3ccccc23)cc1C = 1 (yes)
• O=[N+]([O-])c1cc2c(cc1CNCCc1ccc3c(c1)OCO3)OCO2 = 1 (yes)
• Cc1ccccc1C(O)(Cc1ccccc1)C1CN2CCC1CC2 (configuration not stated) = 1 (yes)
• COc1ccc(CCNCc2ccc(SC)cc2)cc1 = 1 (yes)
• CCOC(=O)C1(CCc2ccccc2)CCN(Cc2ccco2)CC1 = 0 (no)

Query string: Which outcome was assigned to CC(=O)OC1(c2ccccc2)CCN(C2CCCCC2)CC1C (configuration not stated) in this test?
Result string: 0 (no)

Query string: Which outcome was entered for the compound O=[N+]([O-])c1ccc(N2CCNCC2)cc1N1CCCCCC1 in this test?
Result string: 0 (no)
